Hi there, I'd appreciate the recorded ΔTm for every entry that follows.
Biological target: Fibroblast growth factor receptor 3 (Homo sapiens) (UniProt P22607)
Sequence (P22607 23-806 limits assumed): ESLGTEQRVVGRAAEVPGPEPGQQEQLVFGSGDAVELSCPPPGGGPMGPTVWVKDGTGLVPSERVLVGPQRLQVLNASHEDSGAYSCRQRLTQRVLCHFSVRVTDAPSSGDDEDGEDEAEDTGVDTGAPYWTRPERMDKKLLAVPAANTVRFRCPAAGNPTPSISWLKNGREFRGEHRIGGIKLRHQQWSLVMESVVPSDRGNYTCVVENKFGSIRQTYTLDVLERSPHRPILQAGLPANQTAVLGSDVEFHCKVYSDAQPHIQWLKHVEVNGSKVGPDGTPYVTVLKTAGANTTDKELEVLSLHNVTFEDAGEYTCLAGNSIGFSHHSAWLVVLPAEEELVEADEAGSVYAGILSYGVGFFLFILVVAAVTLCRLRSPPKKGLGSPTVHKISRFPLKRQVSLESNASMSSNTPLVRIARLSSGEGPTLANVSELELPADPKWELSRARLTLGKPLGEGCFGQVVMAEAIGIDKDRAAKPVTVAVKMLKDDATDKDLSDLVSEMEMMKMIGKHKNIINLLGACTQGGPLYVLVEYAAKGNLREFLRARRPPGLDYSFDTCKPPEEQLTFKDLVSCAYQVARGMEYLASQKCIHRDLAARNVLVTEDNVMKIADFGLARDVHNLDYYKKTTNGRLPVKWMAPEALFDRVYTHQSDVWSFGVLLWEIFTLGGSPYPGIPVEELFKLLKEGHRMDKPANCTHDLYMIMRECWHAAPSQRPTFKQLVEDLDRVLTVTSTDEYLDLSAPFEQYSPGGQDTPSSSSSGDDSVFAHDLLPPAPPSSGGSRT
Conditions: Compound concentration 20.0 uM, Protein concentration 2.0 uM, Result type QC Liability
Description: Thermal Shift Assay. Domain: start/stop: P449-E759
Give bare numbers, in °C.

# count of solved cases: 2
compound_structure_string	assay_value
CN(C)C(=O)Cn1cc(-c2nc([C@@](C)(c3ccc(-c4cnc(N)nc4)cc3)C3CC3)no2)cn1	0.61
COc1ccc(N(C(=O)Nc2c(C)cccc2C)c2cc(Nc3ccc(N4CCN(C)CC4)cc3)ncn2)c(OC)c1	8.93

Now turn to the next molecule.
Q: Record request: ΔTm value, item CC(C)c1nc2c(c3c1[C@H](c1ccc(C(F)(F)F)cc1)OC31CCOCC1)[C@H](O)CC(C)(C)C2
Result: 0.52

----------
Target: Fibroblast growth factor receptor 3 (Homo sapiens)
Conditions: Compound concentration 20.0 uM, Protein concentration 2.0 uM, Result type QC Liability
measured_quantity: ΔTm (°C)
Numbers only, in °C.

compound	ΔTm, °C
Cc1cc(=O)n(C)c2cc(N3C(=O)CC[C@H](NS(=O)(=O)CC(C)C)[C@H]3c3ccc(Cl)cc3)ccc12	0.86
Cc1cnc(Nc2ccc(C(=O)N3CCN(C)CC3)cc2)nc1N[C@@H]1CCC[C@@H]1C(N)=O	7.25

Give ΔTm for each listed item.
1. Fc1ccc(-c2nc(-c3ccc4ccccc4c3F)[nH]c2-c2ccncc2)cc1
2. O=c1cc(C2CCNCC2)n2nc3cccc(Cl)c3c2[nH]1
3. CC[C@@H](Nc1c(C#N)c(-c2ccc(-c3cccc(C)c3F)cc2)nc2cnccc12)C(=O)O
4. COCc1nc2cnc3cc(-c4c(C)noc4C)c(OC[C@H]4CCNC4)cc3c2n1[C@H](C)c1ccccc1
5. CNC(=O)c1ccc2c(c1)NC(=O)/C2=C(\Nc1ccc(CN2CCCCC2)cc1)c1ccccc1
6. O=C(O)CCCCCC[C@@H]1C(=O)NC(=O)N1CCC(O)C1CCCCC1 (stereo not given in full)

Result:
1.19
0.45
0
0.6
3.97
0.47

----------
Molecular target: Peregrin (Homo sapiens)
Settings: Compound concentration 20.0 uM, Protein concentration 2.0 uM, Result type QC Liability
Hi there, I'd appreciate the recorded ΔTm for every entry that follows.
One number for each entry, in °C.

molecule	assay_value
CC[C@@H](CO)Nc1nc(Nc2cccc(NC(=O)C(C)(C)C)c2)ncc1F	-1.26

Give ΔTm for each listed item.
1. CS(=O)(=O)NCC[C@H](NC(=O)c1cncc2c1cnn2-c1ccc(F)cc1)c1ccnc(S(C)(=O)=O)c1
2. C1=Cc2ccccc2C(=C2CCN(CCCCc3nnn[nH]3)CC2)c2ccccc21
3. C=C(F)C(=O)N1CCN(c2nc(OC[C@@H]3CCCN3C)nc3c2CCN(c2cccc4cccc(Cl)c24)C3)C[C@@H]1CC#N
4. CNC(=O)c1c(F)cccc1Nc1nc(Nc2cc3c(cc2OC)CCN3C(=O)CN(C)C)nc2[nH]ccc12

Result:
1. -1.91
2. -1.48
3. -3.96
4. -2.03

----------
Molecular target: Peregrin (Homo sapiens) (UniProt P55201)
Sequence (whole entry): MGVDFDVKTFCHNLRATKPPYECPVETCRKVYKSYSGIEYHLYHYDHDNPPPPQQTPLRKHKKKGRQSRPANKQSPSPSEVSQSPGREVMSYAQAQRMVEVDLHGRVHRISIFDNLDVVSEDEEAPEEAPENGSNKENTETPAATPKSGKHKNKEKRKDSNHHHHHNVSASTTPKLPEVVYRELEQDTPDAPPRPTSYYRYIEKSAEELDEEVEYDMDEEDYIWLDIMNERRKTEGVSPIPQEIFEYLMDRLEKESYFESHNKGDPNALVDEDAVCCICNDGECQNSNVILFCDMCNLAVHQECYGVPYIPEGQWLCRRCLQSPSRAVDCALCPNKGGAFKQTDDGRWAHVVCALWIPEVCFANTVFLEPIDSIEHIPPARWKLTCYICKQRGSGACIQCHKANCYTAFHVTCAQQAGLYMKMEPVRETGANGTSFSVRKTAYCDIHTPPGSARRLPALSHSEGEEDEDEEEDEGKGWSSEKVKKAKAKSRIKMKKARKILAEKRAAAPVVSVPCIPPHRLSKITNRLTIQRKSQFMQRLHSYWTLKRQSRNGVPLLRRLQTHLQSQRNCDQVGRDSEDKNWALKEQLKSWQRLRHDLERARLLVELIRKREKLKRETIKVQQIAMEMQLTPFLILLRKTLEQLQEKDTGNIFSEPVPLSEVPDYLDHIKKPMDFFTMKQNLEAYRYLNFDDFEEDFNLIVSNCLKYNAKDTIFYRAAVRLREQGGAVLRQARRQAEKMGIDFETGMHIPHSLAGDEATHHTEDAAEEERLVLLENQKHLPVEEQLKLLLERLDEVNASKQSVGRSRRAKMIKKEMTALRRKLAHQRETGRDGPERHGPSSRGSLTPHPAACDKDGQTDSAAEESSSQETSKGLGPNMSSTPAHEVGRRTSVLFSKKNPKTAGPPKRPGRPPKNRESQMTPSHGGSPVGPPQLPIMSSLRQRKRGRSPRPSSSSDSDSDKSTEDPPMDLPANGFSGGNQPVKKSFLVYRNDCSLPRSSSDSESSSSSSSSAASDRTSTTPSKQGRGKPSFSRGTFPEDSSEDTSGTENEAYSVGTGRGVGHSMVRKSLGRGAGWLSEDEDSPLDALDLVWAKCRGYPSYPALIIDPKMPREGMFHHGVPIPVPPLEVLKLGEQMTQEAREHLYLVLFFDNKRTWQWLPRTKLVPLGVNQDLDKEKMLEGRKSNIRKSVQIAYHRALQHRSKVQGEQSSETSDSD
Conditions: Compound concentration 20.0 uM, Protein concentration 2.0 uM, Result type QC Liability
Response field class: enum, chosen by comparing ΔTm against lower = under -2 °C, middle = from -2 °C up to -1 °C, upper = -1 °C and over

Worked examples follow.
compound	category
N#Cc1ccc(C#CC[C@@H](C#N)NC(=O)[C@@H]2CCCCN2)cc1F	lower
CC(C=CC1=C(C)CCCC1(C)C)=CC=CC(C)=CC(=O)O	lower
CC(C)(C#Cc1ccc(NC(=O)COc2ccccc2C(=O)c2ccccc2)c(Cl)c1)C(=O)O	lower

As a next step, examine the compound that follows.
Q: Form field 'band' for CN1CCN(C(=O)c2ccc(N(C)c3ncc(C(F)(F)F)c(N[C@@H]4CCC[C@@H]4C(N)=O)n3)cc2)CC1
Result: lower
